IC50 values by entry
# targetEntity: IL-1RtI (Homo sapiens, UniProt P14778)
# Construct: made in house; host or cells: recombinant host cells (one form soluble from baculovirus transformed host cells; another PIG-tailed and cleaved from the cell surface)
# Sequence (P14778 18-336): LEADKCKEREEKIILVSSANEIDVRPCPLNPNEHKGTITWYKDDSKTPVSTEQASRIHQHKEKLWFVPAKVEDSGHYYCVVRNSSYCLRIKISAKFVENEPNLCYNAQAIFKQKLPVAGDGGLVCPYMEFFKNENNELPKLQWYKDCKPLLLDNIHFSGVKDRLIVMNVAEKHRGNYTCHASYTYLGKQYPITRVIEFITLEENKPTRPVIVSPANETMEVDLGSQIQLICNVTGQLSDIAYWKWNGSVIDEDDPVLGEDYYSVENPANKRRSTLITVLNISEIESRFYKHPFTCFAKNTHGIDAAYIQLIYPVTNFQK
# assaySummary: Inhibition of 125I-IL-1α binding to IL-1RtI (Example 3)
Where a SMILES comes first, the peptide text is derived from it. [ ]: non-standard residue; d: D form. pY = N[C@@H](Cc1ccc(OP(=O)(O)O)cc1)C(=O)O; 1Nal = N[C@@H](Cc1cccc2ccccc12)C(=O)O; Aze = O=C(O)[C@@H]1CCN1

Observe how each entry below is paired with its result.
C[C@H](NC(=O)[C@H](CC(N)=O)NC(=O)[C@H](CO)NC(=O)[C@H](CCC(=O)O)NC(=O)[C@H](CCC(=O)O)NC(=O)[C@H](Cc1c[nH]c2ccccc12)NC(=O)[C@@H](NC(=O)[C@@H](N)Cc1ccccc1)[C@@H](C)O)C(=O)N[C@@H](Cc1ccc(O)cc1)C(=O)N[C@@H](Cc1ccc(O)cc1)C(=O)N[C@@H](Cc1c[nH]c2ccccc12)C(=O)N[C@@H](CCC(N)=O)C(=O)N1CC[C@H]1C(=O)N[C@@H](Cc1ccc(O)cc1)C(N)=O [FTWEESNAYYWQJY-NH2] (H-FTWEESNAYYWQ[Aze]Y-NH2) : < 500 nM
C[C@@H](O)[C@H](NC(=O)[C@H](Cc1c[nH]c2ccccc12)NC(=O)[C@H](CCC(=O)O)NC(=O)[C@@H](N)Cc1ccccc1)C(=O)N1CCC[C@H]1C(=O)N[C@H](CO)C(=O)N[C@@H](Cc1ccc(O)cc1)C(=O)N[C@@H](Cc1ccc(O)cc1)C(=O)N[C@@H](CCC(N)=O)C(=O)N1CC[C@H]1C(=O)N[C@@H](Cc1ccc(O)cc1)C(N)=O [FEWTPsYYQJY-NH2] (H-FEWTP[dS]YYQ[Aze]Y-NH2) : < 500 nM
C[C@@H](O)[C@H](NC(=O)[C@H](Cc1c[nH]c2ccccc12)NC(=O)[C@H](CCC(=O)O)NC(=O)[C@@H](N)Cc1ccccc1)C(=O)N1CCC[C@H]1C(=O)N[C@H](CC(N)=O)C(=O)N[C@@H](Cc1ccc(O)cc1)C(=O)N[C@@H](Cc1ccc(O)cc1)C(=O)N[C@@H](CCC(N)=O)C(=O)N1CC[C@H]1C(=O)N[C@@H](Cc1ccc(O)cc1)C(N)=O [FEWTPnYYQJY-NH2] (H-FEWTP[dN]YYQ[Aze]Y-NH2) : < 500 nM

Next compound, IC50 to be filled in.
CC(C)C[C@H](NC(=O)[C@@H]1CCCN1C(=O)[C@H](CC(C)C)NC(=O)[C@H](C)NC(=O)[C@H](Cc1ccc(O)cc1)NC(=O)[C@@H]1CCN1C(=O)[C@H](CCC(N)=O)NC(=O)[C@H](Cc1ccc(OP(=O)(O)O)cc1)NC(=O)[C@H](Cc1cccc2ccccc12)NC(=O)[C@@H](N)Cc1ccc(OP(=O)(O)O)cc1)C(=O)O [pY(1Nap)pYQJYALPL] (H-[pY][1Nal][pY]Q[Aze]YALPL-OH) yielded IC50 of < 500 nM

---

# targetEntity: IL-1RtI (Homo sapiens, UniProt P14778)
# Construct: made in house; host or cells: recombinant host cells (one form soluble from baculovirus transformed host cells; another PIG-tailed and cleaved from the cell surface)
# assaySummary: Inhibition of 125I-IL-1α binding to IL-1RtI (Example 3)
# condition: inhibition of 125I-IL-1α binding to IL-1RtI; soluble peptide unless marked *
# Protocol: This example provides the results of experiments conducted to determine an approximate IC50 for certain peptides of the invention. […] After the two hour incubation, the wells were rinsed three times with ice cold PBS (a semi-automated cell harvesting device was used to conduct the rinse). […] After the 20 minute incubation, about 75 μl of the suspension was counted on a gamma counter, and the IC50 for each peptide was determined using computer assistance and the results of the gamma counting.
pIC50: −log10 of the molar value. Where a SMILES comes first, the peptide text is derived from it. [ ]: non-standard residue; d: D form. Aze = O=C(O)[C@@H]1CCN1
pIC50 values by entry

C[C@H](NC(=O)[C@@H](N)Cc1ccccc1)C(=O)N[C@@H](Cc1c[nH]c2ccccc12)C(=O)N[C@H](C(=O)N1CCC[C@H]1C(=O)NCC(=O)N[C@@H](Cc1ccc(O)cc1)C(=O)N[C@@H](Cc1c[nH]c2ccccc12)C(=O)N[C@@H](CCC(N)=O)C(=O)N1CC[C@H]1C(=O)N[C@@H](Cc1ccc(O)cc1)C(N)=O)[C@@H](C)O [FAWTPGYWQJY--NH2] (H-FAWTPGYWQ[Aze]Y-NH2) : ≥ 6.30

Next compound, pIC50 to be filled in.
CC(C)[C@H](NC(=O)[C@H](Cc1c[nH]c2ccccc12)NC(=O)[C@H](CCC(=O)O)NC(=O)[C@@H](N)Cc1ccccc1)C(=O)N1CCC[C@H]1C(=O)NCC(=O)N[C@@H](Cc1ccc(O)cc1)C(=O)N[C@@H](Cc1ccc(O)cc1)C(=O)N[C@@H](CCC(N)=O)C(=O)N1CC[C@H]1C(=O)N[C@@H](Cc1ccc(O)cc1)C(N)=O [FEWVPGYYQJY--NH2] (H-FEWVPGYYQ[Aze]Y-NH2) yielded pIC50 of ≥ 6.30
